Data origin: ChEMBL document CHEMBL1145764

As shown below, each of these compounds has a reported clearance value.
Assay: Pharmacokinetic profile in terms of clearance was determined at a dose of 0.5 mg/kg administered intravenously in dog
Format: ADME, organism-based, Canis lupus familiaris
Design: dose 0.5 mg/kg, route intravenous
Details: in vivo, iv
Form entry: value (mL/min/kg) — number only.

[
  {
    "compound": "NC(=O)NCC1(C(=O)Nc2ccc(-c3ccccc3S(N)(=O)=O)cn2)CC(c2ccc(Cl)c(N)c2)=NO1 (single isomer, unassigned; (-))",
    "readout": "clearance",
    "val": 7.17
  }
]

q: Please supply the value of reported clearance for the item CS(=O)(=O)NCC1(C(=O)Nc2ccc(-c3ccccc3S(N)(=O)=O)cn2)CC(c2ccc(Cl)c(N)c2)=NO1 (stereo in doubt)
a: 8.83
